target: AR (Homo sapiens)
Construct: Degradation of AR; Cellular potency; host or cells: VCaP cells
assayProcedure: Degradation of AR in VCaP cells
Format: cell-based
assayContext: VCaP cells
I'd appreciate it if you could supply DC50 values for the items below.

Sample answers from the record:
[
  {
    "molecule": "C[C@H]1CC2(CCN(c3cnc(N4CCN(CC5CCN(c6ccc7c(c6)C(=O)N(C6CCC(=O)NC6=O)C7=O)CC5)CC4)nc3)CC2)CN1c1ccc(C#N)c(Cl)c1 (stereo partly drawn) [compound 83]",
    "recordedMeasurement": "< 1 nM"
  },
  {
    "molecule": "C[C@H]1CC2(CCN(c3ccc(OC4CN(C5CCN(c6ccc7c(c6)C(=O)N(C6CCC(=O)NC6=O)C7=O)CC5)C4)nc3)CC2)CN1c1ccc(C#N)c(Cl)c1 (stereo partly drawn) [compound 72]",
    "recordedMeasurement": "< 100 nM"
  },
  {
    "molecule": "C[C@H]1CC2(CCN(c3ccc(N4CCN(CC5CN(c6ccc7c(c6)C(=O)N(C6CCC(=O)NC6=O)C7=O)C5)CC4)nc3)CC2)CN1c1ccc(C#N)c(Cl)c1 (stereo partly drawn) [compound 34]",
    "recordedMeasurement": "< 1 nM"
  },
  {
    "molecule": "C[C@H]1CC2(CCN(c3ccc(CC4CCN(C5CN(c6ccc7c(c6)C(=O)N(C6CCC(=O)NC6=O)C7=O)C5)CC4)nc3)CC2)CN1c1ccc(C#N)c(Cl)c1 (stereo partly drawn) [compound 197]",
    "recordedMeasurement": "< 1 nM"
  }
]

Dear colleague, could you send me DC50 for each of the items below? Thanks.
1. C[C@H]1CC2(CCN(c3ccc(C(=O)N4CCC(N5CCOc6cc7c(cc6C5)C(=O)N(C5CCC(=O)NC5=O)C7=O)CC4)cc3)CC2)CN1c1ccc(C#N)c(Cl)c1 (stereo partly drawn) [compound 194]
2. C[C@H]1CC2(CCN(c3cnc(N4CCN(CC5CN(c6ccc7c(c6)C(=O)N(C6CCC(=O)NC6=O)C7=O)C5)CC4)nc3)CC2)CN1c1ccc(C#N)c(Cl)c1 (stereo partly drawn) [compound 82]
3. C[C@H]1CC2(CCN(c3ncc(CN4CCN(C5CN(c6ccc7c(c6)C(=O)N(C6CCC(=O)NC6=O)C7=O)C5)CC4)cn3)CC2)CN1c1ccc(C#N)c(Cl)c1 (stereo partly drawn) [compound 183]
4. C[C@H]1CC2(CCN(c3ccc(CN4CCC(CN5Cc6cc7c(cc6C5)C(=O)N(C5CCC(=O)NC5=O)C7=O)CC4)cc3)CC2)CN1c1ccc(C#N)c(Cl)c1 (stereo partly drawn) [compound 20]

< 10 nM
< 1 nM
< 1 nM
< 100 nM

Quick one: DC50 of C[C@H]1CC2(CCN(c3ccc(CC4CCN(CC5CCN(c6ccc7c(c6)C(=O)N(C6CCC(=O)NC6=O)C7=O)CC5)CC4)cc3)CC2)CN1c1ccc(C#N)c(Cl)c1 (stereo partly drawn) [compound 26] ? < 1 nM

* * *

I'd appreciate it if you could supply DC50 values for the items below.
target: AR (Homo sapiens)
Construct: Degradation of AR; Cellular potency; host or cells: VCaP cells
Sequence (P10275 1-920): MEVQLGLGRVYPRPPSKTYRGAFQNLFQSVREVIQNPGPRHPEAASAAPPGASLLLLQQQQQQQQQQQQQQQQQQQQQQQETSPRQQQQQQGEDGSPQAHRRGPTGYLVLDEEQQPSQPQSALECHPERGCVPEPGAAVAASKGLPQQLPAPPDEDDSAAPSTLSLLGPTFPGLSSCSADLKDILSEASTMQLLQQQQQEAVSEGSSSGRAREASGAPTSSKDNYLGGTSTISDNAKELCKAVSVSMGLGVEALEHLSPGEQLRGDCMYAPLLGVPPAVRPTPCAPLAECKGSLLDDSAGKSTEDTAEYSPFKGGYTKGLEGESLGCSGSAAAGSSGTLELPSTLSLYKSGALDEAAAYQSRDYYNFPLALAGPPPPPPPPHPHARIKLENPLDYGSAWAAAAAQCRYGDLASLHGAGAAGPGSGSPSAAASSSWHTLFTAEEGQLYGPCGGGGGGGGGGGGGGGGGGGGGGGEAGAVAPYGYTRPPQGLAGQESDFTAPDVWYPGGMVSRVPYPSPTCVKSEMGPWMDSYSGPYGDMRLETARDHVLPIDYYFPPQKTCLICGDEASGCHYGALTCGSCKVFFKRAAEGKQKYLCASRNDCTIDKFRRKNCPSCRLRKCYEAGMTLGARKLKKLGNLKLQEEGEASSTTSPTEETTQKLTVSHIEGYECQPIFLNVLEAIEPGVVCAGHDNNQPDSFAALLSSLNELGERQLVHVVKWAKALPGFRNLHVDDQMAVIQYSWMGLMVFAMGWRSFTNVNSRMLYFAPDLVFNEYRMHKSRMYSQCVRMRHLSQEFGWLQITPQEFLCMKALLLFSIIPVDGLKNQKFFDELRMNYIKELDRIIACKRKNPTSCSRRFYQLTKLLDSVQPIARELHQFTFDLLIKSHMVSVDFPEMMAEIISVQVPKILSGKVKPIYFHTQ
assayProcedure: Degradation of AR in VCaP cells
Type: cell-based
assayContext: VCaP cells

Sample answers from the record:
[
  {
    "compound": "C[C@H]1CC2(CCN(c3ccc(CN4CC(N5CCN(c6ccc7c(c6)C(=O)N(C6CCC(=O)NC6=O)C7=O)CC5)C4)cn3)CC2)CN1c1ccc(C#N)c(Cl)c1 (some centres unmarked)",
    "DC50": "< 1 nM"
  },
  {
    "compound": "C[C@H]1CC2(CCN(c3ccc(OC4CCN(C5CN(c6cc7c(cc6F)C(=O)N(C6CCC(=O)NC6=O)C7=O)C5)CC4)nc3)CC2)CN1c1ccc(C#N)c(Cl)c1 (some centres unmarked)",
    "DC50": "< 1 nM"
  },
  {
    "compound": "C[C@H]1CC2(CCN(c3ccc(OC4CCN(C5CN(c6cc7c(cc6F)C(=O)N(C6CCC(=O)NC6=O)C7=O)C5)CC4)nn3)CC2)CN1c1ccc(C#N)c(Cl)c1 (some centres unmarked)",
    "DC50": "< 1 nM"
  },
  {
    "compound": "C[C@H]1CC2(CCN(c3cnc(CN4CCN(C5CCN(c6ccc7c(c6)C(=O)N(C6CCC(=O)NC6=O)C7=O)CC5)CC4)nc3)CC2)CN1c1ccc(C#N)c(Cl)c1 (some centres unmarked)",
    "DC50": "< 10 nM"
  }
]

Read the next record carefully.
Param readout = DC50; param system = AR (Homo sapiens); param query = C[C@H]1CC2(CCN(c3ccc(S(=O)(=O)N4CCC(CN5Cc6cc7c(cc6C5)C(=O)N(C5CCC(=O)NC5=O)C7=O)CC4)cc3)CC2)CN1c1ccc(C#N)c(Cl)c1 (some centres unmarked) ; response: value < 1 nM
